# Test system: IL-6
# measurementNotes: Inhibition of IL-6 in LPS-stimulated THP-1 human monocyte cells (HTRF)
# Assay type: cell-based
# particulars: IL-6 inhibition, LPS-stimulated THP-1 cells, HTRF
# Procedure: Human monocyte cell line (THP-1 cells; Catalog # TIB-202, ATCC, Manassas, Va.) were cultured in Roswell Park Memorial Institute (RPMI) 1640 Medium (Catalog #21870-100, Buffalo, N.Y.) with 1% L-glutamine, 1% HEPES, 1% Sodium Pyruvate, 2% Sodium Bicarbonate supplemented with 100 units/mL penicillin, 50 μg/mL streptomycin, 2-mercaptoethanol (0.05 mM) [basal medium] and 10% fetal bovine serum (Catalog #16140089, Life Technologies, Carlsbad, Calif.) at 37° C. and 5% CO2. […]
pEC50: −log10 of the molar value.

| compound | boundType | pEC50 |
| --- | --- | --- |
| CN(C)CCNc1cc(F)cc(-c2cccc3[nH]c(-c4n[nH]c5ccc(-c6cncc(NC(=O)C7CCCCC7)c6)cc45)cc23)c1 [Compound 471] | = | 6.14 |
| CC(C)(C)CC(=O)Nc1cncc(-c2ccc3[nH]nc(-c4cc5c(-c6ccc(F)cc6)cccc5[nH]4)c3c2)c1 [Compound 44] | < | 5.00 |
| CN(C)CCNc1cc(F)cc(-c2cccc3[nH]c(-c4n[nH]c5ccc(-c6cncc(NC(=O)C7CC7)c6)cc45)cc23)c1 [Compound 468] | = | 8.05 |
| CS(=O)(=O)NCc1cc(F)cc(-c2cccc3[nH]c(-c4n[nH]c5ccc(-c6cncc(NC(=O)c7ccccc7)c6)cc45)cc23)c1 [Compound 487] | = | 5.69 |
| Cc1ccncc1-c1ccc2[nH]nc(-c3cc4c(N5CCCCC5)cccc4[nH]3)c2c1 [Compound 173] | = | 5.37 |
| CN(C)Cc1cncc(-c2ccc3[nH]nc(-c4cc5c(-c6ccncc6)cccc5[nH]4)c3c2)c1 [Compound 125] | = | 6.82 |
| CN(C)CCNc1cc(F)cc(-c2cccc3[nH]c(-c4n[nH]c5ccc(-c6cnn(C)c6)cc45)cc23)c1 [Compound 808] | = | 8.22 |

---

# System: SW480 colon cancer cells
# measurementNotes: Cell viability assay (CellTiter-Blue) in SW480 colon cancer cells
# Format: cell-based
# particulars: Homo sapiens, 96 h, four days, CellTiter-Blue
pEC50: −log10 of the molar value.
This listing pairs compounds with measured pEC50.

| compound | boundType | pEC50 |
| --- | --- | --- |
| CN1CCN(c2cccc3[nH]c(-c4n[nH]c5ccc(-c6cncnc6)cc45)cc23)CC1 [Compound 251] | = | 5.48 |
| CN1CCN(c2cccc3[nH]c(-c4n[nH]c5ccc(-c6cncc(CN7CCCCC7)c6)cc45)cc23)CC1 [Compound 239] | < | 5.00 |
| c1ccc(CNCc2cncc(-c3ccc4[nH]nc(-c5cc6c(-c7ccccn7)cccc6[nH]5)c4c3)c2)cc1 [Compound 164] | = | 5.64 |
| c1cc(-c2ccncc2)c2cc(-c3n[nH]c4ccc(-c5ccncc5)cc34)[nH]c2c1 [Compound 130] | < | 5.00 |
| O=C(Nc1cncc(-c2ccc3[nH]nc(-c4cc5c(-c6ccccn6)cccc5[nH]4)c3c2)c1)c1ccccc1 [Compound 151] | < | 5.00 |
| CS(=O)(=O)NCc1cc(F)cc(-c2cccc3[nH]c(-c4n[nH]c5ccc(-c6cncc(NC(=O)C7CC7)c6)cc45)cc23)c1 [Compound 496] | = | 5.99 |
| O=C(Nc1cncc(-c2ccc3[nH]nc(-c4cc5c(-c6cccc(F)c6)cccc5[nH]4)c3c2)c1)C1CCCCC1 [Compound 23] | < | 5.00 |
| O=C(Nc1cncc(-c2ccc3[nH]nc(-c4cc5c(-c6ccncc6)cccc5[nH]4)c3c2)c1)C1CCCCC1 [Compound 135] | < | 5.00 |
| Fc1ccc(-c2cccc3[nH]c(-c4n[nH]c5ccc(-c6cncnc6)cc45)cc23)cc1 [Compound 55] | < | 5.00 |
| CC(C)Nc1cncc(-c2ccc3[nH]nc(-c4cc5c(-c6cccnc6)cccc5[nH]4)c3c2)c1 [Compound 96] | = | 5.94 |
| CCNCc1cncc(-c2ccc3[nH]nc(-c4cc5ncccc5[nH]4)c3c2)c1 [Compound 510] | = | 6.46 |
| CC(C)CC(=O)Nc1cncc(-c2ccc3[nH]nc(-c4cc5c(-c6ccccn6)cccc5[nH]4)c3c2)c1 [Compound 142] | = | 6.04 |
| CC(C)(C)CC(=O)Nc1cncc(-c2ccc3[nH]nc(-c4cc5c(-c6cccnc6)cccc5[nH]4)c3c2)c1 [Compound 100] | = | 5.73 |
| O=C(Nc1cncc(-c2ccc3[nH]nc(-c4cc5c(-c6ccc(F)cc6)cccc5[nH]4)c3c2)c1)C1CCC1 [Compound 49] | = | 5.58 |
| O=C(Cc1ccccc1)Nc1cncc(-c2ccc3[nH]nc(-c4cc5ccccc5[nH]4)c3c2)c1 [Compound 262] | < | 5.00 |
| CCCC(=O)Nc1cncc(-c2ccc3[nH]nc(-c4cc5c(-c6ccc(F)cc6)cccc5[nH]4)c3c2)c1 [Compound 45] | < | 5.00 |
| c1cncc(-c2ccc3[nH]nc(-c4cc5c(-c6cccs6)cccc5[nH]4)c3c2)c1 [Compound 340] | = | 6.43 |
| CCC(=O)Nc1cncc(-c2ccc3[nH]nc(-c4cc5c(-c6cccc(F)c6)cccc5[nH]4)c3c2)c1 [Compound 1] | < | 5.00 |
| COc1cncc(-c2ccc3[nH]nc(-c4cc5c(-c6ccoc6)cccc5[nH]4)c3c2)c1 [Compound 720] | = | 5.85 |
| CCC(=O)Nc1cncc(-c2ccc3[nH]nc(-c4cc5ccccc5[nH]4)c3c2)c1 [Compound 253] | < | 5.00 |
| Nc1cncc(-c2ccc3[nH]nc(-c4cc5c(-c6ccccc6F)cccc5[nH]4)c3c2)c1 [Compound 59] | = | 5.89 |
| O=C(Nc1cncc(-c2ccc3[nH]nc(-c4cc5c(-c6ccc(F)cc6)cccc5[nH]4)c3c2)c1)c1ccccc1 [Compound 39] | = | 5.42 |
| FC1(F)CCN(Cc2cncc(-c3ccc4[nH]nc(-c5cc6c(N7CCCCC7)cccc6[nH]5)c4c3)c2)C1 [Compound 194] | = | 5.35 |
| O=C(Nc1cncc(-c2ccc3[nH]nc(-c4cc5ccccc5[nH]4)c3c2)c1)C1CCC1 [Compound 273] | < | 5.00 |
| CC(C)CC(=O)Nc1cncc(-c2ccc3[nH]nc(-c4cc5c(-c6ccsc6)cccc5[nH]4)c3c2)c1 [Compound 282] | = | 6.74 |
| Cn1cc(-c2ccc3[nH]nc(-c4cc5c(-c6cccnc6)cccc5[nH]4)c3c2)cn1 [Compound 584] | = | 6.02 |
| CC(C)CC(=O)Nc1cncc(-c2ccc3[nH]nc(-c4cc5c(-c6cc(F)cc(NCCN(C)C)c6)cccc5[nH]4)c3c2)c1 [Compound 450] | = | 6.52 |
| CN1CCN(c2cccc3[nH]c(-c4n[nH]c5ccc(-c6cncc(NC(=O)CC7CCNCC7)c6)cc45)cc23)CC1 [Compound 669] | < | 5.00 |
| Fc1cccc(-c2cccc3[nH]c(-c4n[nH]c5ccc(-c6cccnc6)cc45)cc23)c1 [Compound 4] | < | 5.00 |
